Cited source: patent US20240018146A1

- Tested on: HeLa MKYP cells
- assayInfo: Cell death measured by DAPI staining, with 1 μM FCCP/oligomycin or no toxin (no FO)
- Format: cell-based
- conditionSummary: with 1 μM FO
measuredParameter: Max % death with 1 μM FO (%)

> print(dat)
                                   compound           target  recordedresult
1  c1ccc2c(c1)CC[C@H](N1C[C@@H]3COC[C@H]3C1)[C@H]2Nc1ncnc2[nH]c(C3CC3)cc12  HeLa MKYP cells            33.1
2  C[S@@](=N)(=O)C1CN(C2COc3ccccc3C2Nc2ncnc3[nH]c(C(F)(F)F)cc23)C1 (single isomer, unassigned)  HeLa MKYP cells             3.7
3  FC(F)(F)c1cc2c(N[C@@H]3c4ccccc4OC[C@H]3N3CCOCC3)ncnc2[nH]1  HeLa MKYP cells             9.1
4  FC(F)(F)c1cc2c(N[C@H]3c4ccccc4CC[C@@H]3N3C4CCC3COC4)ncnc2[nH]1  HeLa MKYP cells            98.0

###

- assayInfo: Mitotoxicity / Mitotox safety margin (therapeutic window)
- Assay type: cell-based
- conditionSummary: highest safe dose/EC50
Class membership depends on Mito-Safety Index (highest safe dose/EC50) alone; the intervals are L = under 40, M = from 40 up to 80, H = 80 and over

> print(dat)
                                    compound  discretelabel
 1  FC(F)(F)c1cc2c(N[C@@H]3c4ccccc4OC[C@@H]3C3CCCOC3)ncnc2[nH]1 (single isomer, unassigned)              L
 2  C[C@H]1CN([C@@H]2COc3ccccc3[C@H]2Nc2ncnc3[nH]c(C(F)(F)F)cc23)CCO1              M
 3  FC(F)(F)c1cc2c(N[C@@H]3c4ccccc4OC[C@H]3C3CCOCC3)ncnc2[nH]1 (single isomer, unassigned)              M
 4  C[C@@H]1CN([C@@H]2COc3ccccc3[C@H]2Nc2ncnc3[nH]c(C(F)(F)F)cc23)CCO1              M
 5  FC(F)(F)c1cc2c(N[C@H]3c4ccccc4OC[C@@H]3C3CCOCC3)ncnc2[nH]1              H
 6  CN(c1ncnc2[nH]c(C3CC3)cc12)C1c2ccccc2CCC1N1C[C@H]2COC[C@H]2C1 (some centres unmarked)              L
 7  C[C@H]1CN([C@H]2COc3ccccc3[C@@H]2Nc2ncnc3[nH]c(C4CC4)cc23)CCO1              H
 8  C[C@@H]1CN([C@H]2COc3ccccc3[C@@H]2Nc2ncnc3[nH]c(C4CC4)cc23)C[C@H](C)O1 [EP-0040944]              L
 9  FC(F)(F)c1cc2c(N[C@H]3c4ccccc4CC[C@@H]3N3CC4(CCOCC4)C3)ncnc2[nH]1 (single isomer, unassigned)              L
10  CO[C@@H]1CCN([C@H]2COc3ccccc3[C@@H]2Nc2ncnc3[nH]c(C(F)(F)F)cc23)C1              M
11  Fc1ccc2c(c1)CC[C@H](N1C[C@H]3COC[C@@H]3C1)[C@H]2Nc1ncnc2[nH]c(C3CC3)cc12              M
12  CN(c1ncnc2[nH]c(C(F)(F)F)cc12)C1c2ccccc2CCC1N1C[C@H]2COC[C@H]2C1 (some centres unmarked)              L
13  c1ccc2c(c1)OC[C@H](N1CCOCC1)[C@H]2Nc1ncnc2[nH]c(C3CC3)cc12 [EP-0040080]              M
14  c1ccc2c(c1)CC[C@H](N1CCOCC1)[C@H]2Nc1ncnc2[nH]c(C3CC3)cc12 (single isomer, unassigned) [EP-0040108]              H
15  FC(F)(F)c1cc2c(N[C@H]3c4ccccc4CC[C@@H]3C3CCOCC3)ncnc2[nH]1 (single isomer, unassigned)              M
16  c1ccc2c(c1)OC[C@H](C1CCOCC1)[C@H]2Nc1ncnc2[nH]c(C3CC3)cc12 (single isomer, unassigned)              H
17  C[C@@H]1CN([C@@H]2COc3cc(F)ccc3[C@H]2Nc2ncnc3[nH]c(C(F)(F)F)cc23)CCO1              H
18  Fc1ccc2c(c1)CC[C@H](N1CCOCC1)[C@H]2Nc1ncnc2[nH]c(C(F)(F)F)cc12 (single isomer, unassigned)              L
19  FC(F)(F)c1cc2c(N[C@@H]3c4ccccc4CC[C@H]3N3CCOCC3)ncnc2[nH]1 (racemic)              L
20  C[C@@H]1CN([C@H]2CCc3ccccc3[C@@H]2Nc2ncnc3[nH]c(C(F)(F)F)cc23)CCO1 (single isomer, unassigned)              M
21  FC(F)(F)c1cc2c(N[C@@H]3c4ccccc4CC[C@H]3N3C[C@H]4COC[C@H]4C3)ncnc2[nH]1 (single isomer, unassigned)              H
22  C[C@@H]1CN([C@@H]2COc3cc(F)ccc3[C@H]2Nc2ncnc3[nH]c(C(F)(F)F)cc23)C[C@H](C)O1              H
23  C[C@@H]1CN([C@H]2COc3ccccc3[C@@H]2Nc2ncnc3[nH]c(C4CC4)cc23)C[C@H](C)O1 (single isomer, unassigned) [EP-0040750]              M
24  FC(F)(F)c1cc2c(N[C@H]3c4ccccc4OC[C@@H]3N3C[C@H]4COC[C@H]4C3)ncnc2[nH]1              L
25  Fc1ccc2c(c1)OC[C@H](N1C[C@@H]3COC[C@H]3C1)[C@H]2Nc1ncnc2[nH]c(C3CC3)cc12 (single isomer, unassigned) [EP-0040874]              H
